Format: physicochemical
Conditions: HPLC on reversed phase columns, method [a]: pH 2.7, 0.1% formic acid in water / acetonitrile, linear gradient 10% to 95% acetonitrile
Observed property: log P

Sample records with log P:
I am curious: what log P value has been reported for CC1(C(=O)NC2CCCCNC2=O)CC(c2ccc3ncc(Br)cc3c2)=NO1 (stereo not shown) [compound 252] ?
2.23^[a]

Continue with C#Cc1cnc2ccc(C3=NOC(C)(C(=O)NCc4cn(C5CCC5)nc4C)C3)cc2c1 (stereo not shown) [compound 632]
2.63[a]

And what about the compound CCn1cc(C(C)NC(=O)C2(C)CC(c3ccc4ncc(Br)cc4c3)=NO2)c(C)n1 (stereo not shown) [compound 312] ?
2.52[a]

New cases:
Consider the compound shown here: CC(C)NC(=O)C1(C(F)F)CC(c2ccc3ncc(I)cc3c2)=NO1 (stereo not shown) [compound 620] What is its recorded log P?
3.17[a]
